# STUDY_SYSTEM: EGFR (L858R/T790M/C797S) (Homo sapiens, UniProt P00533, C797S/L858R/T790M)
# Sequence (P00533 25-1210 T790M/C797S/L858R): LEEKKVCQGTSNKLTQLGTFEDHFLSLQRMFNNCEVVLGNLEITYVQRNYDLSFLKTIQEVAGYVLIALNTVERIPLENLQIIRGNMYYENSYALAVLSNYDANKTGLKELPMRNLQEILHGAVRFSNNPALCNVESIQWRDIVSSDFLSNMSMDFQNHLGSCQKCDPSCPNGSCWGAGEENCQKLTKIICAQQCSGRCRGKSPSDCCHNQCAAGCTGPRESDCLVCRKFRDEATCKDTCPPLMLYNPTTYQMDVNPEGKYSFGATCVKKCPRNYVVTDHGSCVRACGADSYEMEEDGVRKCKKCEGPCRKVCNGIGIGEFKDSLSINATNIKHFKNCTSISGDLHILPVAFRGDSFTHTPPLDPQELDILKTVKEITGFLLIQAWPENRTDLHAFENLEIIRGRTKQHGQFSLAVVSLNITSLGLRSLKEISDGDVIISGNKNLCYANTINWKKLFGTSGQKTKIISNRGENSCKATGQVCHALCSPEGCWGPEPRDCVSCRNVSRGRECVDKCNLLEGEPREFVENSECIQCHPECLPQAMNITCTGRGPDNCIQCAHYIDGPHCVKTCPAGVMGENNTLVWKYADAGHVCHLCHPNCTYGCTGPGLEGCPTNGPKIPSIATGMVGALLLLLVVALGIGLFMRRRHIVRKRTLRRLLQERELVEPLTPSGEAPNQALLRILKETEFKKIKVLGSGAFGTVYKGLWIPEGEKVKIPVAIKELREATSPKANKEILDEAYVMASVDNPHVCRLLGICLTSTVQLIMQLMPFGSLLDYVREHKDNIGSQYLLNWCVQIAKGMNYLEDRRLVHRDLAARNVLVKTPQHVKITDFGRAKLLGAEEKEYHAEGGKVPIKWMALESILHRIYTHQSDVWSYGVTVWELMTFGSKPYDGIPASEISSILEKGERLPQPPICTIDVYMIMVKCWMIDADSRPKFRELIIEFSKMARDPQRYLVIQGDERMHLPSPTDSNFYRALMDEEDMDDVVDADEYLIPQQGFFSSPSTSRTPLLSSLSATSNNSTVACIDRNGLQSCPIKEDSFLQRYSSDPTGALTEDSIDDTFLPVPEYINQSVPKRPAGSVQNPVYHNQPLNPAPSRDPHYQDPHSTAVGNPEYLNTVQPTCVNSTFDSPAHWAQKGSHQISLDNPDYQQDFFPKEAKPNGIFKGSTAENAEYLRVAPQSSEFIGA
# ASSAY_TEXT: Cell degradation HTRF assay, BaF3-LTC cells
# Format: cell-based
# Set-up: expressed in transfected cells; host or cells: BaF3-LTC
# CONDITION_SUMMARY: 16 h treatment, HTRF
MEASURED_PROPERTY: DC50 (nM)
Enter your answer as a number in nM; do not include the unit.

Consider the reported DC50 for these compounds:
CCc1cc(Nc2ncc(Br)c(Nc3cnc4ccccc4c3P(C)(C)=O)n2)c(OC)cc1N1CCC(N2CCN(C(=O)C3CCN(c4ccc5c(c4)C(C)(C)C(=O)N5C4CCC(=O)NC4=O)CC3)CC2)CC1 (stereo not drawn): 3.86
CCc1cc(Nc2ncc(Br)c(Nc3cnc4cccnc4c3P(C)(C)=O)n2)c(OC)cc1N1CCC(N2CCN(CCC3CCN(c4cc(F)c(C5CCC(=O)NC5=O)c(F)c4)CC3)CC2)CC1 (stereo not drawn): 29.3

The compound identified as CCc1cc(Nc2ncc(Br)c(Nc3cnc4cccnc4c3P(C)(C)=O)n2)c(OC)cc1N1CCC(N2CCN(CCc3cc(F)c(C4CCC(=O)NC4=O)c(F)c3)CC2)CC1 (stereo not drawn) registered its DC50 at 45.3

---

# STUDY_SYSTEM: EGFR (L858R/T790M/C797S) (Homo sapiens, UniProt P00533, C797S/L858R/T790M)
# ASSAY_TEXT: Cell degradation HTRF assay, BaF3-LTC cells
# Type: cell-based
# Set-up: expressed in transfected cells; host or cells: BaF3-LTC
# CONDITION_SUMMARY: 16 h treatment, HTRF
// thresholds for DC50 classes: bin 0 = under 7 nM, bin 1 = from 7 nM up to 20 nM, bin 2 = 20 nM and over

Reference set (4 entries):
CCc1cc(Nc2ncc(Br)c(Nc3cnc4ccccc4c3P(C)(C)=O)n2)c(OC)cc1N1CCC(N2CCN(C(=O)C3CC4(CC(Nc5cc(F)c(C6CCC(=O)NC6=O)c(F)c5)C4)C3)CC2)CC1 (stereo not drawn): bin 1
CCc1cc(Nc2ncc(Br)c(Nc3cnc4ccccc4c3P(C)(C)=O)n2)c(OC)cc1N1CCC(N2CCN(CC3CN(c4cc(F)c(C5CCC(=O)NC5=O)c(F)c4)C3)CC2)CC1 (stereo not drawn): bin 1
CCc1cc(Nc2ncc(Br)c(Nc3cnc4ccccc4c3P(C)(C)=O)n2)c(OC)cc1N1CCC(N2CCN(C(=O)C3CN(c4ccc5c(c4)CN(C4CCC(=O)NC4=O)C5=O)C3)CC2)CC1 (stereo not drawn): bin 0
CCc1cc(Nc2ncc(Br)c(Nc3cnc4ccccc4c3P(C)(C)=O)n2)c(OC)cc1N1CCC(N2CCN(C(=O)C3CN(c4ccc5c(cnn5C5CCC(=O)NC5=O)c4)C3)CC2)CC1 (stereo not drawn): bin 0

Request: Record CCc1cc(Nc2ncc(Br)c(Nc3cnc4ccccc4c3P(C)(C)=O)n2)c(OC)cc1N1CCC(N2CCN(CCC3CCN(c4cc(F)c(C5CCC(=O)NC5=O)c(F)c4)CC3)CC2)CC1 (stereo not drawn) — which class?
Result: bin 2

Request: Record CCc1cc(Nc2ncc(Br)c(Nc3cnc4ccccc4c3P(C)(C)=O)n2)c(OC)cc1N1CCC(N2CCN(C(=O)[C@H]3C[C@H](N(C)c4cc(F)c(C5CCC(=O)NC5=O)c(F)c4)C3)CC2)CC1 (stereo partly drawn) — which class?
Result: bin 1

Request: Record CCc1cc(Nc2ncc(Br)c(Nc3cnc4ccccc4c3P(C)(C)=O)n2)c(OC)cc1N1CCC(N2CCN(C(=O)C3CCN(c4ccc5c(c4)n(C)c(=O)n5C4CCC(=O)NC4=O)CC3)CC2)CC1 (stereo not drawn) — which class?
Result: bin 0

Request: Record CCc1cc(Nc2ncc(Br)c(Nc3cnc4cnccc4c3P(C)(C)=O)n2)c(OC)cc1N1CCC(N2CCN(CCc3cc(F)c(C4CCC(=O)NC4=O)c(F)c3)CC2)CC1 (stereo not drawn) — which class?
Result: bin 1

---

# Tested on: EGFR (Del19/T790M/C797S)
# ASSAY_TEXT: Cell degradation HTRF assay, BaF3-DTC cells
# Assay type: cell-based
# CONDITION_SUMMARY: 16 h treatment, maximum percentage of degradation
# DTC Dmax (%) listing for each entry below
Enter your answer as a number in %; do not include the unit.

CCc1cc(Nc2ncc(Br)c(Nc3cnc4cccnc4c3P(C)(C)=O)n2)c(OC)cc1N1CCC(N2CCN(CCC3CCN(c4cc(F)c(C5CCC(=O)NC5=O)c(F)c4)CC3)CC2)CC1 (centres unmarked): 96.14

The compound identified as CCc1cc(Nc2ncc(Br)c(Nc3cnc4ccccc4c3P(C)(C)=O)n2)c(OC)cc1N1CCC(N2CCN(C(=O)C3CCN(c4ccc5c(c4)n(C)c(=O)n5C4CCC(=O)NC4=O)CC3)CC2)CC1 (centres unmarked) registered its DTC Dmax (%) at 94.57

The compound identified as CCc1cc(Nc2ncc(Br)c(Nc3cnc4ccccc4c3P(C)(C)=O)n2)c(OC)cc1N1CCC(N2CCN(C(=O)C3CCN(c4ccc5c(c4)C(C)(C)C(=O)N5C4CCC(=O)NC4=O)CC3)CC2)CC1 (centres unmarked) registered its DTC Dmax (%) at 96.58

The compound identified as CCc1cc(Nc2ncc(Br)c(Nc3cnc4ccccc4c3P(C)(C)=O)n2)c(OC)cc1N1CCC(N2CCN(CCc3ccc(C4CCC(=O)NC4=O)c(F)c3)CC2)CC1 (centres unmarked) registered its DTC Dmax (%) at 86.75

The compound identified as CCc1cc(Nc2ncc(Br)c(Nc3cnc4cnccc4c3P(C)(C)=O)n2)c(OC)cc1N1CCC(N2CCN(CCc3cc(F)c(C4CCC(=O)NC4=O)c(F)c3)CC2)CC1 (centres unmarked) registered its DTC Dmax (%) at 90.9

The compound identified as CCc1cc(Nc2ncc(Br)c(Nc3cnc4ccccc4c3P(C)(C)=O)n2)c(OC)cc1N1CCC(N2CCN(C(=O)C3CN(c4ccc5c(c4)CN(C4CCC(=O)NC4=O)C5=O)C3)CC2)CC1 (centres unmarked) registered its DTC Dmax (%) at 96.98

The compound identified as CCc1cc(Nc2ncc(Br)c(Nc3cnc4ccccc4c3P(C)(C)=O)n2)c(OC)cc1N1CCC(N2CCN(CCc3cccc4c3n(C)c(=O)n4C3CCC(=O)NC3=O)CC2)CC1 (centres unmarked) registered its DTC Dmax (%) at 94.17

The compound identified as CCc1cc(Nc2ncc(Br)c(Nc3cnc4ccccc4c3P(C)(C)=O)n2)c(OC)cc1N1CCC(N2CCN(C(=O)C3CN(c4cc(F)c(C5CCC(=O)NC5=O)c(F)c4)C3)CC2)CC1 (centres unmarked) registered its DTC Dmax (%) at 96.7

The compound identified as CCc1cc(Nc2ncc(Br)c(Nc3cnc4ccccc4c3P(C)(C)=O)n2)c(OC)cc1N1CCC(N2CCN(CCc3cccc4nn(C5CCC(=O)NC5=O)cc34)CC2)CC1 (centres unmarked) registered its DTC Dmax (%) at 81.73

---

# Dmax listing for each entry below
# STUDY_SYSTEM: EGFR (L858R/T790M/C797S) (Homo sapiens, UniProt P00533, C797S/L858R/T790M)
# ASSAY_TEXT: Cell degradation HTRF assay, BaF3-LTC cells
# Type: cell-based
# Design: expressed in transfected cells; host or cells: BaF3-LTC
# CONDITION_SUMMARY: 16 h treatment, maximum percentage of degradation
Enter your answer as a number in %; do not include the unit.

The compound identified as CCc1cc(Nc2ncc(Br)c(Nc3cnc4ccccc4c3P(C)(C)=O)n2)c(OC)cc1N1CCC(N2CCN(CCc3cccc4nn(C5CCC(=O)NC5=O)cc34)CC2)CC1 (stereo not shown) registered its Dmax at 84.6

The compound identified as CCc1cc(Nc2ncc(Br)c(Nc3cnc4ccccc4c3P(C)(C)=O)n2)c(OC)cc1N1CCC(N2CCN(C(=O)C3CCN(c4ccc5c(c4)C(C)(C)C(=O)N5C4CCC(=O)NC4=O)CC3)CC2)CC1 (stereo not shown) registered its Dmax at 92.5

The compound identified as CCc1cc(Nc2ncc(Br)c(Nc3cnc4ccccc4c3P(C)(C)=O)n2)c(OC)cc1N1CCC(N2CCN(C(=O)C3CN(c4cc(F)c(C5CCC(=O)NC5=O)c(F)c4)C3)CC2)CC1 (stereo not shown) registered its Dmax at 89.5

The compound identified as CCc1cc(Nc2ncc(Br)c(Nc3cnc4ccccc4c3P(C)(C)=O)n2)c(OC)cc1N1CCC(N2CCN(CCc3cccc4c3n(C)c(=O)n4C3CCC(=O)NC3=O)CC2)CC1 (stereo not shown) registered its Dmax at 93.3

The compound identified as CCc1cc(Nc2ncc(Br)c(Nc3cnc4cccnc4c3P(C)(C)=O)n2)c(OC)cc1N1CCC(N2CCN(CCC3CCN(c4cc(F)c(C5CCC(=O)NC5=O)c(F)c4)CC3)CC2)CC1 (stereo not shown) registered its Dmax at 88

The compound identified as CCc1cc(Nc2ncc(Br)c(Nc3cnc4c(C)cccc4c3P(C)(C)=O)n2)c(OC)cc1N1CCC(N2CCN(CCC3CCN(c4cc(F)c(C5CCC(=O)NC5=O)c(F)c4)CC3)CC2)CC1 (stereo not shown) registered its Dmax at 89.6

The compound identified as CCc1cc(Nc2ncc(Br)c(Nc3cnc4ccccc4c3P(C)(C)=O)n2)c(OC)cc1N1CCC(N2CCN(C(=O)C3CCN(c4ccc5c(c4)n(C)c(=O)n5C4CCC(=O)NC4=O)CC3)CC2)CC1 (stereo not shown) registered its Dmax at 86.4

The compound identified as CCc1cc(Nc2ncc(Br)c(Nc3cnc4c(C)cccc4c3P(C)(C)=O)n2)c(OC)cc1N1CCC(N2CCN(CCc3cc(F)c(C4CCC(=O)NC4=O)c(F)c3)CC2)CC1 (stereo not shown) registered its Dmax at 88.4

The compound identified as CCc1cc(Nc2ncc(Br)c(Nc3cnc4ccccc4c3P(C)(C)=O)n2)c(OC)cc1N1CCC(N2CCN(C(=O)[C@H]3C[C@H](N(C)c4cc(F)c(C5CCC(=O)NC5=O)c(F)c4)C3)CC2)CC1 (stereo partly shown) registered its Dmax at 90.7

The compound identified as CCc1cc(Nc2ncc(Br)c(Nc3cnc4ccccc4c3P(C)(C)=O)n2)c(OC)cc1N1CCC(N2CCN(C(=O)C3CC4(CC(Nc5cc(F)c(C6CCC(=O)NC6=O)c(F)c5)C4)C3)CC2)CC1 (stereo not shown) registered its Dmax at 88.6
